# experimental system: human TRPV1 receptor (Homo sapiens, UniProt Q8NER1, M315I/T336M)
# Construct: expressed in transfected cells; host or cells: HEK-293
# Sequence (Q8NER1 whole entry M315I/T336M): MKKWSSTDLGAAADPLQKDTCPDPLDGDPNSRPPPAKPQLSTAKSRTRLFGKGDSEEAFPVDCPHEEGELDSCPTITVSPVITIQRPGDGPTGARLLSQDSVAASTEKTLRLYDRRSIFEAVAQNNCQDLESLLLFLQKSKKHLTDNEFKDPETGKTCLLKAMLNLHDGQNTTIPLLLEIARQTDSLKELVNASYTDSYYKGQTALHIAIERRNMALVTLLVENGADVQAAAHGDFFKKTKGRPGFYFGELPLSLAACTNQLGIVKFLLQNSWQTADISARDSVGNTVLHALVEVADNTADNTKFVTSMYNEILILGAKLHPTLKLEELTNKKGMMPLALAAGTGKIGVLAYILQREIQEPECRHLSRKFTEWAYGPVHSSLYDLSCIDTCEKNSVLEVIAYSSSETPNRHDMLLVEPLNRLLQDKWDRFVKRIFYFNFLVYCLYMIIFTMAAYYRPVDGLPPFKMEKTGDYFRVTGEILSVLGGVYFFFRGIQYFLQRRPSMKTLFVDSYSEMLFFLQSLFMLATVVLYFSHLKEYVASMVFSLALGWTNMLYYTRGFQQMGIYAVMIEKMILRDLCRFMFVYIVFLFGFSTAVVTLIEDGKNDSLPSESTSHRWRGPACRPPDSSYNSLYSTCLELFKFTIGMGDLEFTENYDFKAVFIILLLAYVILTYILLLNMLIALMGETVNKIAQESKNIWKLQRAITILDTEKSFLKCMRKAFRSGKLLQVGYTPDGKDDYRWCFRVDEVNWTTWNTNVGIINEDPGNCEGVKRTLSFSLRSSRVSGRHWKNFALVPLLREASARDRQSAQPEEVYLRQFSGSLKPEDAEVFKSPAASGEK
# assay overview: FLIPR calcium flux, antagonists to CPC activation of TRPV1
# Assay type: cell-based
# condition summary: compound 1 mM (0.04% for extracts), 30 min preincubation, then CPC 100 uM
We use 3000 count as the dividing line for Ca count CPC TRPV1 Receptor Antagonist: on or above the line is label 1, below is label 0.

Examples with answers:
{"compound": "NCCc1ccc(O)cc1", "experimental system": "human TRPV1 receptor (Homo sapiens, UniProt Q8NER1, M315I/T336M)", "group label": "label 0"}
{"compound": "CCCCOC(=O)C(C)C [Butyl Isobutyrate]", "experimental system": "human TRPV1 receptor (Homo sapiens, UniProt Q8NER1, M315I/T336M)", "group label": "label 0"}

Prompt: Record CCCCCC=CC(=O)O [2-Octenoic Acid, Predominantly Trans, 2-Octenoic Acid] ; criterion: Ca count CPC TRPV1 Receptor Antagonist no lower than 3000 count. Met?
Response: label 0

Prompt: Another compound to check: CCCC(=O)OC(C)(C)Cc1ccccc1 [Alpha,Alpha-Dimethylphenethyl Butyrate]
Response: label 1

Prompt: Another compound to check: CC1=CCCC(C)(C)C1/C=C/C(C)O (centres unmarked)
Response: label 0

Prompt: Another compound to check: CCCCCCCCCCOC(C)=O [Decyl Acetate]
Response: label 0

Prompt: Another compound to check: CCCCCC=CC(C)=O
Response: label 1

Prompt: Another compound to check: Nc1ccccc1C(=O)Oc1ccc2ccccc2c1
Response: label 1
